System: OVCAR-4 ovarian
Assay: NCI-60 one-dose screen, 48 h
Conditions: 10 µM unless noted
The panel holds about 83,000 compounds, 20% with a hit somewhere; the sample as a whole holds those more often. Activity calls are given as the source filed them. The calls were made as follows: active = growth percent below 10; inactive = the rest.
Give your call using only these classes: 1 = active, 0 = inactive

Query: Recorded call for Cc1cc(C)c2c(c1)N(C)c1ncnc(-n3c(C)nc4cc(C)ccc43)c1CC2C (stereo not given) ?
Response: 0

Query: Recorded call for `O=C1/C(=C/c2ccc(Cl)cc2)CN(C(=O)C(Cl)Cl)C/C1=C\c1ccc(Cl)cc1` ?
Response: 1

Query: Recorded call for CC12OC(CC(O)C1O)n1c3ccccc3c3c4c(c5c6ccccc6n2c5c31)C(=O)N(CCN1CCCC1)C4=O (stereo not given) ?
Response: 0

More entries:
Query: Recorded call for `CC(C)NS(=O)(=O)/N=C1\NC(=O)NC1=C(Cl)Cl` ?
Response: 0
